assay-name: chemical genetic growth profiling, strain panel (AID 1159580);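 note: tested at 20 µM; growth read once vehicle control cultures reached saturation at 30 °C; 1 = growth at the plate median or of vehicle wells; lower values mean less growth of the strain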
measurement-conditions: S. cerevisiae deletion strains, growth OD, locus YLR113W, strain HOG1, stronger effect = lower value
Hit rate of the full screen: of about 5,500 compounds, about 2,000 (36%) were called active. Not shown: some 18% with an inconclusive outcome. This is one part of the list.
measured-attribute: normalized growth
// keep it numeric: no unit symbol after the value

Value lookup for normalized growth; key = `O=C(SCc1c(Cl)cccc1Cl)c1ccc([N+](=O)[O-])o1`
0.4

Value lookup for normalized growth; key = `Cc1oc(-c2ccc(Cl)cc2)cc1C(=O)N1CCN(c2ccc(C(F)(F)F)cn2)CC1`
0.893

Value lookup for normalized growth; key = `CCS(=O)(=O)CCn1c([N+](=O)[O-])cnc1C`
0.938

Value lookup for normalized growth; key = `COc1cccc(C(=O)C(C#N)=C(SC)SC)c1`
0.324

Value lookup for normalized growth; key = C[N+]1(C)CCc2cc3c(cc2[C@H]1C1OC(=O)c2c1ccc1c2OCO1)OCO3 (some centres not stated)
1.03

Value lookup for normalized growth; key = `Oc1ccc(-n2nnnc2SCc2ccc(OC(F)(F)F)cc2)cc1`
0.523

Value lookup for normalized growth; key = `Nc1ccc(N2CCN(c3ccc(C(F)(F)F)cn3)CC2)nc1`
0.991

Value lookup for normalized growth; key = `N#Cc1ccc2c(c1)N(CCCN1CCC(O)CC1)c1ccccc1S2`
1.05

Value lookup for normalized growth; key = `O=c1cc(-c2ccc(O)cc2)oc2cc(O[C@@H]3O[C@H](CO)[C@@H](O)[C@H](O)[C@H]3O[C@@H]3OC[C@](O)(CO)[C@H]3O)cc(O)c12`
1.03

Value lookup for normalized growth; key = `CN(NC(=S)Nc1cc(Cl)ccc1Cl)c1ccc(C(F)(F)F)cc1[N+](=O)[O-]`
0.74

Value lookup for normalized growth; key = `N#C/C(=C\C=C\c1ccccc1)c1nc2ccccc2[nH]1`
0.658

Value lookup for normalized growth; key = `Cc1c(NCN2C(=O)CCC2=O)cc2c(c1[N+](=O)[O-])C(C)(C)CC2(C)C`
0.861

Value lookup for normalized growth; key = `CCOc1ccc(Cc2nccc3cc(OCC)c(OCC)cc23)cc1OCC`
1.02

Value lookup for normalized growth; key = `CSC(SC)=C(C#N)C(=O)c1ccccc1Cl`
0.147

Value lookup for normalized growth; key = `COc1ccc(Cc2nccc3cc(OC)c(OC)cc23)cc1OC`
0.975

Value lookup for normalized growth; key = `CC(=O)c1ccc2c(c1)N(CCCN(C)C)c1ccccc1S2`
0.995

Value lookup for normalized growth; key = `O=c1n(CCCN2CCN(c3cccc(Cl)c3)CC2)nc2ccccn12`
1

Value lookup for normalized growth; key = `O=C(c1ccc(Cl)cc1)N1CCN(c2ccc(C(F)(F)F)cn2)CC1`
0.813

Value lookup for normalized growth; key = `OCCN1CCN(CCCN2c3ccccc3Sc3ccc(Cl)cc32)CC1`
0.98

Value lookup for normalized growth; key = C[C@]12CCC3C(CC[C@H]4C[C@H](O)CC[C@]34C)C1CCC2=O (some centres not stated)
0.912

Value lookup for normalized growth; key = `Nc1ncnc2c1ncn2[C@@H]1O[C@H](CO)[C@@H](O)[C@@H]1O`
1

Value lookup for normalized growth; key = C[C@]12CCC3C(CC[C@H]4CC(=O)CC[C@]34C)C1CCC2=O (some centres not stated)
0.923
